# Tested on: HL-60(TB) leukemia
# experimentSummary: NCI-60 one-dose screen, 48 h (100 = growth as untreated, 0 = no growth, -100 = all killed)
# conditionSet: 10 µM unless noted
Compounds without any hit were thinned out: in the full panel of roughly 83,000, 20% have a hit.
measurementKind: growth (%)

{"moleculeSmiles": "COc1ccc(-c2nn(-c3ccccc3)cc2/C=C/C(=O)c2ccc(NC(=O)CCCCCCC(=O)NO)cc2)cc1", "measurementKind": "growth", "testResult": 116}
{"moleculeSmiles": "CC(C)(C)c1cc(NC(=O)Nc2ccc(-c3cn4c5c(sc4n3)CCc3cn(CCCN4CCCCC4)cc3-5)cc2)no1", "measurementKind": "growth", "testResult": -18.9}
{"moleculeSmiles": "C#C[C@]1(O)CC[C@H]2[C@@H]3CC=C4c5sc(N(C)c6ccccc6)nc5CC[C@]4(C)[C@H]3CC[C@@]21C", "measurementKind": "growth", "testResult": 61.8}
{"moleculeSmiles": "COc1cc(C(=O)C[n+]2ccc3ccccc3c2)cc(OC)c1OC", "measurementKind": "growth", "testResult": 92.7}
{"moleculeSmiles": "Oc1ccc(CSc2nnc(-c3ccc(Oc4ccccc4)cc3)n2-c2ccccc2)c2cccnc12", "measurementKind": "growth", "testResult": 10.1}
{"moleculeSmiles": "NC(N)=Nc1ccc(Oc2ccc(Nc3ccc(Cl)c(C(F)(F)F)c3)cc2)cc1", "measurementKind": "growth", "testResult": -33.8}
{"moleculeSmiles": "NS(=O)(=O)c1nnc(/N=C/c2c(O)[nH]c3ccccc23)s1", "measurementKind": "growth", "testResult": 123}
{"moleculeSmiles": "COc1cc(/C=N/n2cnc3oc(-c4ccccc4)cc3c2=N)cc(CN2CCCC2)c1O", "measurementKind": "growth", "testResult": 64.9}
{"moleculeSmiles": "O=C(NCCCNc1cc(-c2cn(-c3ccccc3)nc2-c2cccc(O)c2)ccn1)Nc1ccc(F)cc1", "measurementKind": "growth", "testResult": 1.09}

* * *

# Tested on: MCF7 breast
# experimentSummary: NCI-60 one-dose screen, 48 h (100 = growth as untreated, 0 = no growth, -100 = all killed)
# conditionSet: 10 µM
About 83,000 compounds went through this panel and 20% of them were active in at least one assay; those are over-represented in the sample as a whole.
A collection of compounds and their measured growth
measurementKind: growth (%)

{"moleculeSmiles": "CC1=C2C(=C[C@@](C)(COC(=O)c3ccc(S(=O)(=O)F)cc3)[C@@H]2O)C(=O)[C@](C)(O)C12CC2", "experimentalTarget": "MCF7 breast", "unitTag": "%", "testResult": 1.68}
{"moleculeSmiles": "CC1=C2C(=O)[C@](C)(CO)C=C2C(=O)[C@](C)(O)C12CC2", "experimentalTarget": "MCF7 breast", "unitTag": "%", "testResult": 1.34}
{"moleculeSmiles": "CC(=O)O[C@@H]1C[C@H]2O[C@@H]3C=C(C)CC[C@]3(C)[C@]1(C)[C@]21CO1", "experimentalTarget": "MCF7 breast", "unitTag": "%", "testResult": 3.89}
{"moleculeSmiles": "CC1=C[C@H]2O[C@@H]3C[C@H]4OC(=O)/C=C\\C=C\\[C@H]([C@@H](C)O)OCC/C(C)=C/C(=O)OC[C@@]2(CC1)[C@]4(C)[C@]31CO1", "experimentalTarget": "MCF7 breast", "unitTag": "%", "testResult": -10.6}
